The reported measurements were obtained from ChEMBL document CHEMBL4118078.

# Tested System: Cannabinoid receptor 2 (Homo sapiens)
# Sequence (P34972 whole entry): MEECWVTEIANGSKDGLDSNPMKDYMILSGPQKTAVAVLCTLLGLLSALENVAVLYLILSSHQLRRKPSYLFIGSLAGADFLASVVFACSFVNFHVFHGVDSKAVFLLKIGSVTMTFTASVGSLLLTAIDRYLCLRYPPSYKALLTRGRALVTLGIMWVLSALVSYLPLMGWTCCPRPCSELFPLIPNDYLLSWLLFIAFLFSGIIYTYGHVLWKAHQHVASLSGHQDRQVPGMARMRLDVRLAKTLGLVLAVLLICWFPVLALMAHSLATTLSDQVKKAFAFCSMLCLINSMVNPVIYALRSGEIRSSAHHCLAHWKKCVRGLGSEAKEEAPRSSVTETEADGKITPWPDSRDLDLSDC
# Assay Explanation: Agonist activity at CB2 receptor (unknown origin) expressed in CHO cells assessed as induction of calcium mobilization at 10 uM by fluo-4 AM dye-based fluorescence assay relative to CP55940
# Type: functional, cell-based
Property: Activity
Lab note: write values as number then unit, every time.

[[record]]
compound = "CC(C)c1cc(Nc2cccc(Cl)c2)nnc1C(=O)NC1C2CC3CC(C2)CC1C3 (configuration not stated)"
property = "Activity"
recorded_result = "48%"

[[record]]
compound = "CC(C)c1cc(N2CCCCC2)nnc1C(=O)NC1C2CC3CC(C2)CC1C3 (configuration not stated)"
property = "Activity"
recorded_result = "114%"

[[record]]
compound = "CC(C)c1cc(NCCO)nnc1C(=O)NC1CCCCC1"
property = "Activity"
recorded_result = "91.1%"


Problem: Please provide the recorded Activity for CC(C)c1cc(C(=O)NC2C3CC4CC(C3)CC2C4)nnc1NC1CCCC1 (configuration not stated) , tested on Cannabinoid receptor 2 (Homo sapiens).
Solution: 122%

Problem: So what Activity did CC(C)c1cc(C(=O)NC2C3CC4CC(C3)CC2C4)nnc1Nc1cccc(Cl)c1 (configuration not stated) get with Cannabinoid receptor 2 (Homo sapiens)?
Solution: 19.2%

Problem: Please provide the recorded Activity for CC(C)c1cc(C(=O)NC2C3CC4CC(C3)CC2C4)nnc1N1CCOCC1 (configuration not stated) , tested on Cannabinoid receptor 2 (Homo sapiens).
Solution: 107%

Problem: Lookup: Activity / Cannabinoid receptor 2 (Homo sapiens) / CC(C)c1cc(N2CCN(C)CC2)nnc1C(=O)NC1C2CC3CC(C2)CC1C3 (configuration not stated)
Solution: 3.06%

Problem: Lab note: need Activity with Cannabinoid receptor 2 (Homo sapiens) for entry CCCCNc1cc(C(C)C)c(C(=O)NC2CCCCC2)nn1 , please look it up.
Solution: 13.4%

----------
# Species on record: Homo sapiens
# Assay Explanation: Selectivity index, ratio of EC50 for CB1 receptor (unknown origin) to EC50 for CB2 receptor (unknown origin)
Property: Ratio EC50

Some compounds with recorded Ratio EC50:
[[record]]
compound = "CC(C)c1cc(NC2CCCC2)nnc1C(=O)NC1C2CC3CC(C2)CC1C3 (stereo unspecified)"
property = "Ratio EC50"
recorded_result = "> 1750"

[[record]]
compound = "CC(C)c1cc(C(=O)NC23CC4CC(CC(C4)C2)C3)nnc1N1CCOCC1"
property = "Ratio EC50"
recorded_result = "> 29"


Problem: Which Ratio EC50 reading was recorded for the compound CCCCNc1cc(C(C)C)c(C(=O)NC2C3CC4CC(C3)CC2C4)nn1 (stereo unspecified) ?
Solution: > 203

Problem: Look up Ratio EC50: CC(C)c1cc(NC(C)C(C)C)nnc1C(=O)NC1C2CC3CC(C2)CC1C3 (stereo unspecified)
Solution: > 3

Problem: Find the recorded Ratio EC50 belonging to CC(C)c1cc(C(=O)NC2CCCCC2)nnc1N1CCOCC1 and report it.
Solution: > 10

Problem: # query: Ratio EC50 of entry CC(C)c1cc(NC2CCCC2)nnc1C(=O)NC12CC3CC(CC(C3)C1)C2
Solution: > 33

----------
# Tested System: UniProt P21554
# Sequence (P21554 whole entry): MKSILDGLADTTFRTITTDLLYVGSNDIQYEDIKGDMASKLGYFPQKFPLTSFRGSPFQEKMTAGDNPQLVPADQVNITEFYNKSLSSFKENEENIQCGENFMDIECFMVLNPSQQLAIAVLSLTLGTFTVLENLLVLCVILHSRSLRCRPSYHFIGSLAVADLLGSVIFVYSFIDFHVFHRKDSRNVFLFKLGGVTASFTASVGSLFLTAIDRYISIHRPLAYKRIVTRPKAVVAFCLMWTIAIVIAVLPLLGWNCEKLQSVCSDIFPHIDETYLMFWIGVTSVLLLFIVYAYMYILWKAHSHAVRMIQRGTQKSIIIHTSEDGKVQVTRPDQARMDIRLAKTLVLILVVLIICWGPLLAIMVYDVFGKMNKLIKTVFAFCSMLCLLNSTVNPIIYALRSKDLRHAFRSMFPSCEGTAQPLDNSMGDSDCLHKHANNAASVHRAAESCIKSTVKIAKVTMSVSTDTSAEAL
# Assay Explanation: Agonist activity at CB1 receptor (unknown origin) expressed in CHO cells assessed as induction of calcium mobilization at 10 uM by fluo-4 AM dye-based fluorescence assay relative to CP55940
# Assay type: functional, cell-based
Property: Activity (%)
Dear colleague, please return just the value in %, with no unit written.

Problem: What measured Activity is associated with CC(C)c1cc(NC(C)C(C)C)nnc1C(=O)NC1C2CC3CC(C2)CC1C3 (configuration not stated) on UniProt P21554?
Solution: 10.7

Problem: Recorded Activity for O=C(NCC1CCOCC1)c1cnc(Nc2ccc(Cl)cc2Cl)nc1C(F)(F)F [GW842166X] with UniProt P21554, please?
Solution: 18.2

Problem: Field: Activity (UniProt P21554). Entry: CC(C)c1cc(N2CCOCC2)nnc1C(=O)NC1C2CC3CC(C2)CC1C3 (configuration not stated)
Solution: 26.1

Problem: What value of Activity on UniProt P21554 does CC(C)c1cc(NCCO)nnc1C(=O)NC12CC3CC(CC(C3)C1)C2 have?
Solution: 13.4

Problem: Quick check: Activity on UniProt P21554, item CC(C)c1cc(NC2CCCCC2)nnc1C(=O)NC1C2CC3CC(C2)CC1C3 (configuration not stated) ?
Solution: -0.238

Problem: What value of Activity on UniProt P21554 does CC(C)c1cc(NCCO)nnc1C(=O)NC1C2CC3CC(C2)CC1C3 (configuration not stated) have?
Solution: 17.4

Problem: I'm curious: which Activity was measured for CC(C)c1cc(NC2CCCC2)nnc1C(=O)NC12CC3CC(CC(C3)C1)C2 tested on UniProt P21554?
Solution: 19.5

Problem: Kindly state the measured Activity obtained for CC(C)c1cc(C(=O)NC2C3CC4CC(C3)CC2C4)nnc1NC1CCCC1 (configuration not stated) with UniProt P21554.
Solution: 6.55

Problem: Missing value: Activity, UniProt P21554, entry CC(C)c1cc(C(=O)NC2C3CC4CC(C3)CC2C4)nnc1NCCO (configuration not stated) . Fill in?
Solution: -0.906

Problem: Record CCC(CC)Nc1nnc(C(=O)NC2C3CC4CC(C3)CC2C4)cc1C(C)C (configuration not stated) : what is its Activity with UniProt P21554?
Solution: -5.62

Problem: Recall the recorded Activity for CC(C)c1cc(N2CCOCC2)nnc1C(=O)NC12CC3CC(CC(C3)C1)C2 with UniProt P21554 and state it.
Solution: 3.8
